- Tested on: MALME-3M melanoma
- test_name: NCI tumour cell line growth inhibition, 48 h
metric: TGI (µM)
Dear colleague, please return just the value in µM, with no unit written.

Worked cases, TGI given:
O=C(O)CNS(=O)(=O)c1ccc(NC(=O)CI)cc1 | 39.6
CN(C)CCCNc1c(C#N)[n+]([O-])c2cc(Cl)ccc2[n+]1[O-] | 17.4

Turning now to a further molecule:
Q: Report TGI for Cc1ccc(C)n1-c1ccccc1C1C=CN(C(=O)OC(C)(C)C)C=C1 please.
Result: 47.8

---

- Tested on: HCT-116 colon
- test_name: NCI tumour cell line growth inhibition, 48 h
Everything with TGI lower than 30 µM is n; everything else, including exactly 30 µM, is y.

Cc1cc(Cc2cc(C)cc(C(C)(C)C)c2O)c(O)c(Cc2cc(C)cc(C(C)(C)C)c2O)c1 | n
O=C(NNCc1ccco1)c1cc2ccccc2[nH]1 | y
COC(=O)CCC1CCC(c2cc(F)ccc2F)(S(=O)(=O)c2ccc(Cl)cc2)CC1 (centres undefined) | y
CN(C)CCCN1c2ccccc2C(C)(C)c2ccccc21 | n
COc1cc([C@H]2CC(=O)C[C@H](c3cc(OC)c(OC)c(OC)c3)C23C(=O)c2ccccc2C3=O)cc(OC)c1OC | y
Nc1c(C(=O)Nc2ccc(C3=NCCN3)cc2)cccc1C(=O)Nc1ccc(C2=NCCN2)cc1 | y
Oc1cc(-c2ccc(Cl)cc2)cn2c1nc1ccccc12 | y
OC(CNCC1CCCO1)Cn1c2ccc(Cl)cc2c2cc(Cl)ccc21 (centres undefined) | n

Q: Entry CN(C)CC1C(=O)O[C@H]2[C@H]1CC/C(COC(=O)c1cc3ccccc3[nH]1)=C\CC[C@@]1(C)O[C@@H]21 (some centres undefined) : is its TGI no less than 30 µM?
Result: n

---

# Lookup of reported TGI keyed by entry
- System: OVCAR-4 ovarian
- test_name: NCI tumour cell line growth inhibition, 48 h
# number only, unit µM dropped from output

CC[C@@]1(OC(=O)CN)C(=O)OCc2c1cc1n(c2=O)Cc2cc3c(N)cccc3nc2-1 | 3.32
Oc1[nH]c2c(Br)cccc2c1C1=Nc2ccccc2/C1=N/OCCN1CCCC1 | 3.35
CC1(C)C/C(=N/O)c2c(nc3ccc4ccccc4c3c2-c2ccc(Cl)cc2)C1 | 30.4

Kindly consider the entry below.
Q: Item Cc1cc(NCc2cc(Nc3ccnc4cc(Cl)ccc34)ccc2F)nc(N2CCN(C)CC2)n1 has what recorded TGI?
Result: 8.57

---

- Test system: MALME-3M melanoma
- test_name: NCI tumour cell line growth inhibition, 48 h
Reported TGI by item:
Write down the numeric answer in µM and omit the unit.

CC[C@@]1(OC(=O)CN)C(=O)OCc2c1cc1n(c2=O)Cc2cc3c(N)cccc3nc2-1 | 1.75

Q: // query TGI value for entry Cc1cc(=O)[nH]c2cc3c(c4c(n3Cc3ccc(Cl)cc3Cl)CC(C)(C)CC4=O)c(O)c12
Result: 75.9

Q: Entry CCCCN(Cc1ccccc1)C(=NC#N)N(Cc1ccccc1)Cc1ccccc1 has what TGI?
Result: 79.4

---

- System: MCF7 breast
- test_name: NCI tumour cell line growth inhibition, 48 h
metric: GI50

Observe how each entry below is paired with its result.
COc1ccc(NC(=O)COCCOCCNC[C@@H]2C(=O)O[C@H]3[C@H]2CC/C(COC(=O)OC/C2=C/CC[C@@]4(C)O[C@H]4[C@H]4OC(=O)[C@@H](CN(C)C)[C@@H]4CC2)=C\CC[C@@]2(C)O[C@@H]32)c(O)c1C(N)=O | 1630 nM
COc1ccccc1N1CCN(CCc2c[nH]c3cc4c(cc23)OCO4)CC1 | 33300 nM

Q: Can you look up the measured GI50 of Cc1ccc2c(c1)C(C)Cc1c(Cl)ncnc1N2C (stereo not drawn) for me?
Result: 2960 nM
